Collected IC50 for Tyrosine-protein kinase JAK3 (Homo sapiens, UniProt P52333) across several studies; molecules listed below.

| molecule | IC50 |
| --- | --- |
| CCOC(=O)Cn1cc(Nc2ncc3ccn(CC(C(C)C)C(C)C)c3n2)cn1 | < 0.1 µM |
| CCC(CC)n1cc(-c2nc(-c3cnn(C[C@H]4COCCN4)c3)cn3nccc23)cn1 | 1 to 10 µM |
| C=CC(=O)N1CC(CNc2nc(Nc3cnn(CCOC)c3)nc3ccsc23)C1 | 0.01 to 0.1 µM |
| C=CC(=O)N1CCc2ccc(-n3c(=O)ccc4cnc5ccc(-c6cn[nH]c6)cc5c43)cc21 | 2.15 µM |
| CCC(CC)n1cc(-c2nc(-c3cnn(C(C)(C)CO)c3)cn3nccc23)cn1 | 1 to 10 µM |
| Cc1cnc2nc1Nc1cccc(c1)CCCNC(=O)c1ccc(cc1)-c1cnc(F)c(c1)N2 | 0.011 to 0.1 µM |
| C[C@@H](Nc1c(C(N)=O)cnn2cc(N3CCNC3=O)cc12)C(C)(C)C | 0.0012 µM |
| CC1(C)[C@H](Nc2c(C(N)=O)cnn3cc(N4CCC4=O)cc23)CC[C@]1(C)N | 0.0088 µM |
| CCC(CC)n1cc(-c2nc(-c3cnn(C[C@@H](C)CO)c3)cn3nccc23)cn1 | 1 to 10 µM |
| CCC(CC)n1cc(-c2nc(-c3cnn(C4CCN(S(C)(=O)=O)CC4)c3)cn3nccc23)cn1 | 1 to 10 µM |
| Cn1cc(-c2cc3nccn3c(-c3ccn(C(CC#N)C4CC4)n3)n2)cn1 (stereo not drawn) | 0.1 to 1 µM |
| CC#CC(=O)N1CCC(n2nc(-c3ccc(Oc4ccccc4)cc3)c3cncnc32)CC1 | > 0.5 µM |
| CCOC(=O)c1cnc2[nH]ccc2c1NC1CCCC(O)C1 (stereo not drawn) | 0.01 to 0.1 µM |
| C=CC(=O)Nc1cccc(Oc2nc(Nc3ccc(C4CCCN(C)C4)cc3)nc3ccsc23)c1 (stereo not drawn) | ≤ 0.05 µM |
| O=C(NCCC(F)(F)F)c1noc2c1CN(c1ncnc3[nH]ncc13)CC2 | 0.1 to 0.5 µM |
| CCOC(=O)c1cnc2[nH]ccc2c1N[C@H]1CCC[C@@H](CCC#N)C1 (racemic) | ≤ 0.01 µM |
| Cc1cc(Nc2cc3ncccc3c(N3CC4CCC(C3)N4CCC#N)n2)n[nH]1 | 0.0259 µM |
| Nc1nccc(-c2nc3cnc(-n4cnc5ccc(F)cc54)nc3n2C2CCOCC2)n1 | < 0.1 µM |
| CCC(CC)n1cc(-c2nc(-c3cnn(C[C@H]4CCC(=O)N4)c3)cn3nccc23)cn1 | 1 to 10 µM |
| O=C(NC[C@@H]1CC[C@@H]1O)c1noc2c1CN(c1ncnc3[nH]ccc13)CC2 (relative stereo) | < 0.1 µM |
| CCC(=O)c1cnc(Nc2ccc([C@H](C)N(C)C)cn2)cc1Nc1cccc(-c2ncn(C)n2)c1OC | ≥ 0.5 µM |
| CN(c1ncnc2[nH]ccc12)C1CC2(C1)CN(C(=O)c1csc3ccccc13)C2 | 1 to 10 µM |
| Cc1ccc(NC(=O)c2cc(NCCN(C)C)cc(C(F)(F)F)c2)cc1-c1ccc2c(c1)[nH]c1ncncc12 | ≤ 0.5 µM |
| O=C(NCC(F)(F)F)C1CCCN(Nc2ncnc3[nH]ccc23)C1 (stereo not drawn) | 0.01 to 0.1 µM |
| C=CC(=O)N1CC[C@@H](Nc2nc(Nc3cc(C)ns3)nn3cccc23)C1 | ≤ 0.01 µM |
| Cc1cnc(Nc2cccc(S(C)(=O)=O)c2F)nc1-c1c[nH]c2c(NC(=O)NC(C)C)ncnc12 | < 0.5 µM |
| CC(=O)N1CC[C@H](Nc2n[nH]c3nccc(Oc4cccc(C(=O)Nc5ccc(C(C)C)c(C)c5)c4)c23)C1 | 1 to 10 µM |
| CNC(=O)c1cnc2[nH]ccc2c1NN1CCC[C@H](C(=O)NCC(F)(F)F)C1 | 0.00654 µM |
| N#Cc1cc(-c2ccnc(Nc3ccc(N4CCOCC4)cc3)n2)ccc1O | < 0.5 µM |
| CCNC(=O)N1CC(CCF)(n2cc(-c3nc(-c4cnn(C)c4)cc4nccn34)cn2)C1 | > 1 µM |
| C=CS(=O)(=O)Nc1cccc(Nc2cc(Nc3ccc(F)c(Cl)c3)ncn2)c1 | ≤ 0.01 µM |
| O=C(NCCC(F)(F)F)c1noc2c1CN(c1ncnc3[nH]ccc13)CC21CC1 | < 0.1 µM |
| CC(C)(C)c1nc2cnc(-n3cnc4ccc(F)cc43)nc2n1C1CCOCC1 | < 0.1 µM |
